- experimental system: pOBP-SAM (pOBP-F88W immobilized on gold gate) (Sus scrofa, UniProt P81245, F88W)
- Construct: His6 (N); made in house; host or cells: Escherichia coli BL21(DE3), pET5b vector
- Sequence (P81245 whole entry F88W): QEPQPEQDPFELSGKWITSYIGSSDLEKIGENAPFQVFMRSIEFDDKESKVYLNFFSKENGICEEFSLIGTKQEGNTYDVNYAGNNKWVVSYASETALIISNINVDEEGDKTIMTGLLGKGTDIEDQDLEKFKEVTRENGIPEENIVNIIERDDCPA
- experimental protocol: WGOFET with pOBP-SAM gate: binding curves from ΔI/I electronic response
- Parameters: species or system porcine
- study conditions: pOBP-SAM gate, fit of ΔI/I binding curve of Fig. 5b, three devices; read-out: dissociation constant KFET (Langmuir's isotherm fit)
property: Kd (nM)
The reply should be a number in nM, with the unit left off.

Req: Please look up its Kd: C=C(C)[C@H]1CC=C(C)C(=O)C1 [(S)-(+)-carvone]
Resp: 0.81

----------
- experimental system: pOBP-SAM (pOBP-F88W immobilized on gold gate) (Sus scrofa, UniProt P81245, F88W)
- Construct: His6 (N); made in house; host or cells: Escherichia coli BL21(DE3), pET5b vector
- experimental protocol: WGOFET with pOBP-SAM gate: binding curves from ΔI/I electronic response
- Set-up: species or system porcine
- study conditions: pOBP-SAM gate, fit of ΔI/I binding curve of Fig. 5b; read-out: dissociation constant KFET (Hill's isotherm fit)
property: pKd
The value called pKd is obtained by taking minus log10 of the concentration in mol/L.

Req: Please look up its pKd: OCCc1ccccc1 [2-phenylethanol]
Resp: 6.15

Req: Please look up its pKd: C=C(C)[C@@H]1CC=C(C)C(=O)C1 [(R)-(−)-carvone]
Resp: 7.70

Req: Please look up its pKd: C=C(C)[C@H]1CC=C(C)C(=O)C1 [(S)-(+)-carvone]
Resp: 9.40

These measurements were taken from paper PMC4309438.
